Where these numbers come from: patent EP1992228A1

Recorded chromatographic logP by entry
- RUN DESCRIPTION: logP (HCOOH) determination
- Type: physicochemical

>  <COMPOUND STRUCTURE>
C[C@H](NC(=S)NCCO)c1ccc(F)cc1

>  <PROPERTY NAME>
chromatographic logP

>  <DATA VALUE>
1.52

$$$$

GET /values?readout=chromatographic logP&item= C[C@H](NC(=S)NCCO)c1ccccc1F
1.5

---

Recorded mortality at 500 g/ha by entry
- Test system: Myzus persicae
- RUN DESCRIPTION: Myzus persicae-test (MYZUPE, spray application)
- Type: in vivo
- EXPERIMENTAL SETUP: application rate of 500 g/ha, spray on Chinese cabbage leaf-disks, green peach aphid, all instars
- Description: Myzus persicae-test (MYZUPE, spray application) [table] [table] To produce a suitable preparation of active compound, 1 part by weight of active compound is mixed with the stated amount of solvent and emulsifier, and the concentrate is diluted with emulsifier-containing water to the desired concentration. […] After the specified period of time, mortality in % is determined. […]

GET /values?readout=mortality at 500 g/ha&item= CC[C@H](NC(=S)NCCO)c1ccccc1
≥ 80%

GET /values?readout=mortality at 500 g/ha&item= C[C@H](NC(=S)NCCO)c1ccc(F)cc1
≥ 80%

GET /values?readout=mortality at 500 g/ha&item= C[C@H](NC(=S)NCCO)c1ccc(Cl)cc1
≥ 80%

GET /values?readout=mortality at 500 g/ha&item= C[C@H](NC(=S)NCCO)c1ccccc1
≥ 80%
